assayed.target: UniProtKB P42345
experimental.details: mTOR activity (no method described)
Format: biochemical
quantity.kind: mTOR (µM)

COc1cc(C(=O)NC2CC2)ccc1-n1c(=O)ccc2cnc3ccc(-c4ccc(CN(C)C)cc4)cc3c21 :: 10.68
O=C(c1ccc(-n2c(=O)ccc3cnc4ccc(-c5ccc(Cl)cc5)cc4c32)cc1)N1CCC(O)CC1 :: 1.595
CC(C)c1ccc(-c2ccc3ncc4ccc(=O)n(-c5ccc(C(=O)N6CCOCC6)cc5)c4c3c2)cc1 :: 17.28
O=C(c1ccc(-n2c(=O)ccc3cnc4ccc(-c5ccc6c(c5)CNC6)cc4c32)cc1)N1CCOCC1 :: 0.373

* * *

Sol @ pH 7.4: recorded values
experimental.details: Solubility at pH 7.4
Format: physicochemical
quantity.kind: Sol @ pH 7.4 (ug/mL)

N#Cc1cccc(-n2c(=O)n(CCO)c3cnc4ccc(-c5ccc(Cl)cc5)cc4c32)c1 :: 0.9
O=C(NCCCN1CCCC1)c1ccc(-n2c(=O)ccc3cnc4ccc(-c5ccc(F)cc5)cc4c32)cc1 :: 0
O=C(c1ccc(-n2c(=O)ccc3cnc4ccc(-c5ccc(CN6CCOCC6)cc5)cc4c32)cc1)N1CCOCC1 :: 3.4
CN1CCN(CCNC(=O)c2ccc(-n3c(=O)ccc4cnc5ccc(-c6ccc(Cl)cc6)cc5c43)cc2)CC1 :: 0
O=C1NCc2cc(-c3ccc4ncc5ccc(=O)n(-c6ccc(C(=O)N7CCOCC7)cc6)c5c4c3)ccc21 :: 20.3
CC(O)c1ccc(-c2ccc3ncc4c(c3c2)n(-c2cccc(C#N)c2)c(=O)n4C)cc1 (stereo not drawn) :: 3.3
O=C(c1ccc(-n2c(=O)ccc3cnc4ccc(-c5ccc(CCN6CCOCC6)cc5)cc4c32)cc1)N1CCOCC1 :: 1.1

* * *

experimental.details: Microsomal stability (rat)
Type: in vitro ADME
measurement.setup: rat microsomes
quantity.kind: Microsomal Stability (rat) T1/2

NCCCN1Cc2cc(-n3c(=O)ccc4cnc5ccc(-c6ccc(Cl)cc6)cc5c43)ccc2C1=O :: >30 min
Nc1ccc(-c2ccc3ncc4ccc(=O)n(-c5ccc6c(c5)CCC(=O)N6)c4c3c2)cn1 :: >30.00 min
CC(C)(N)c1cccc(-c2ccc3ncc4ccc(=O)n(-c5ccc(C(=O)N6CCOCC6)cc5)c4c3c2)c1 :: >30 min
O=C1CCc2cc(-n3c(=O)ccc4cnc5ccc(-c6ccc(Cl)cc6)cc5c43)ccc2N1 :: >30.00 min
Nc1ccc(-c2ccc3ncc4ccc(=O)n(-c5ccc(C(=O)N6CCOCC6)cc5)c4c3c2)cn1 :: >30.0 min
CCN(CC)Cc1ccc(-c2ccc3ncc4ccc(=O)n(-c5ccc(C(=O)N6CCOCC6)cc5)c4c3c2)cc1 :: >30.00 min
O=C(NCCN1CCNCC1)c1ccc(-n2c(=O)ccc3cnc4ccc(-c5ccc(Cl)cc5)cc4c32)cc1 :: >30 min
CN(C)CCOc1ccc(-c2ccc3ncc4ccc(=O)n(-c5ccc(S(C)(=O)=O)cc5)c4c3c2)cc1 :: >30 min

* * *

experimental.details: Microsomal stability (rat)
Type: in vitro ADME
measurement.setup: rat microsomes
Microsomal Stability (rat) T1/2: recorded values
quantity.kind: Microsomal Stability (rat) T1/2

Nc1ccc(-c2ccc3ncc4ccc(=O)n(-c5ccc6c(c5)NC(=O)C6)c4c3c2)cn1 [Compound 394] :: >30 min
O=C(NC1CC1)c1ccc(-n2c(=O)ccc3cnc4ccc(-c5ccc(Cl)cc5)nc4c32)cc1 [Compound 93] :: >30 min
O=C(NC1CC1)c1ccc(-n2c(=O)ccc3cnc4ccc(-c5ccc(CN6CCCC6)cc5)cc4c32)cc1 [Compound 233] :: >30 min
CN(C)Cc1ccc(-c2ccc3ncc4ccc(=O)n(-c5ccc(S(C)(=O)=O)cc5)c4c3c2)cc1 [Compound 30] :: >30.0 min
Nc1cccc(-c2ccc3ncc4ccc(=O)n(-c5ccc(C(=O)N6CCOCC6)cc5)c4c3c2)c1 [Compound 130] :: >30.0 min
Nc1ccc(-c2ccc3ncc4ccc(=O)n(-c5ccc6c(c5)C(=O)NC6=O)c4c3c2)cn1 [Compound 395] :: >30 min
CNC(=O)c1ccc(-n2c(=O)ccc3cnc4ccc(-c5ccc(CN(C)C)cc5)cc4c32)cc1 [Compound 174] :: >30.00 min
CC(C)(C)OC(=O)CN1Cc2cc(-n3c(=O)ccc4cnc5ccc(-c6ccc(Cl)cc6)cc5c43)ccc2C1=O [Compound 364] :: >30 min
